Origin of measurements: PubChem BioAssay

# Method Description: HUVEC growth inhibition – cell-based, human, primary screen (AID 575);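 further: 100% = median of untreated cell wells with 0.1% DMSO on each plate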
# Experimental Context: HUVEC proliferation, CellTiter-Glo luminescence, 72 h; at 10 µM; stronger effect = lower value
The source made the active and inactive calls.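 How the source made its calls: active means viability at or below 30% in both replicate assays; inconclusive means viability at or below 30% in just one of the two assays; inactive means the rest.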
Measured Endpoint: viability

Return reported viability; argument: O=C(COc1nnnc2ccccc12)N1CCCc2ccccc21
98.2% (inactive)

Param item = O=C(C1CCCO1)N1CCN(Cc2nc3ccccc3c(=O)[nH]2)CC1 (centres undefined) ; retrieve measured viability.
96.3% (inactive)

Can you look up the measured viability of O=C(COc1ccc(F)cc1Br)N1CCc2ccccc21 for me?
77.3% (inactive)

# query: viability of entry CCOC(=O)Cn1c(=N)n(CCOc2cccc(C)c2)c2ccccc21
99.6% (inactive)

Tell me the measured viability of O=C(O)c1cc2nc(-c3ccc(F)cc3)cc(C(F)(F)F)n2n1 , please.
82% (inactive)

Return reported viability; argument: Cc1cccc2c1N(CC(=O)OC(C)C)C(=O)C2=O
95% (inactive)

Which viability is listed for CCOc1ccc(-c2nnc(N)s2)cc1 ?
96.3% (inactive)

Fill blank: measured viability of the molecule COc1ccccc1-c1noc(-c2cccnc2)n1 is ____.
117% (inactive)

Return reported viability; argument: CC1C(c2ccccc2)N(C)CCC12NC(=O)NC2=O (centres undefined)
96.9% (inactive)

Would you kindly share the measured viability for Cc1cc(C(=O)CN2C(=O)c3ccccc3C2=O)c(C)n1Cc1cccs1 ?
111% (inactive)

Look at this molecule and give its reported viability. COC(=O)c1cccc(Oc2nc3c(c(=O)n(C)c(=O)n3C)n2C(C)C)c1
79.6% (inactive)

So what does the record say about viability for Cc1cccc2sc(NC(=O)CN(C)S(=O)(=O)c3cccs3)nc12 ?
48.8% (inactive)

# lookup: viability of COCc1ccccc1Cn1cnc2c1c(=O)n(C)c(=O)n2C
85.8% (inactive)

Param item = Cc1cc(OCC(=O)N2CCCC2)cc(C)c1Cl ; retrieve measured viability.
101% (inactive)

Query: viability; subject: CC1CCN(CCCNC(=O)c2cn(C)c3ccc(S(=O)(=O)N4CCCC4)cc3c2=O)CC1
96.9% (inactive)

Request the reported viability associated with Cc1cc(NC(=O)COC(=O)C2COc3ccccc3O2)no1 (centres undefined)
104% (inactive)

Any idea what its viability is? The molecule is O=C(Cn1cnc2c(cnn2-c2ccc(F)cc2)c1=O)N1CCCc2ccccc21
85.6% (inactive)

Tell me the measured viability of CCNC(=O)N(C(=O)NCC)n1c(C)nnc1C , please.
105% (inactive)

Can you share its viability? I mean this molecule: CC(C)c1cc(C(=O)NCc2ccco2)no1
84.3% (inactive)

For CCSCCC(NC1=CC(=O)CC(C)(C)C1)C(=O)O (centres undefined) , what is its reported viability?
116% (inactive)

State the recorded viability for this entry: COc1ccc(-c2cc3nc(C)c(CCC(=O)NCc4ccco4)c(C)n3n2)c(OC)c1
92.1% (inactive)

Form field: reported viability of CCc1nnc2c3cnn(-c4ccccc4)c3ncn12
102% (inactive)

Need viability of COC(=O)c1ccccc1NC(=O)c1cc(-c2ccc(OC)c(OC)c2)on1 , thanks.
114% (inactive)

Please report the recorded viability for Cc1cc2nc3c(nc2cc1C)C1(C(=O)O)CCC3(C)C1(C)C (centres undefined) .
99.9% (inactive)

###

Please provide measured viability for the entries that follow.
# Method Description: growth inhibitors of H69AR lung tumor, primary screen, human, duplicate replicates (AID 580);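 further: 100% = mean luminescence of untreated wells and 0% = no signal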
# Experimental Context: H69AR lung tumor cells viability, ATP luminescence, 72 h; at 10 µM; stronger effect = lower value
The response must be a number in % with no trailing unit.

Fill blank: measured viability of the compound Cc1cc2c(nn1)CCC/C2=N\O is ____.
95.6

Would you kindly share the measured viability for CCN(c1cccc(C)c1)S(=O)(=O)c1ccc2[nH]c(=O)c(=O)[nH]c2c1 ?
92.1

Which viability value is on record for CC1CCN(C(=O)C2CCN(S(=O)(=O)c3cnc[nH]3)CC2)CC1 ?
103

Suppose we examine the compound Cc1nc(/N=C\N(C)C)sc1C(=O)Nc1ccccc1 ; what viability value has been reported?
96.2

Could you tell me which viability is on file for COc1ccc(CCNc2nc(N3CCOCC3)nc(N3CCOCC3)n2)cc1OC ?
96.7

Could you tell me which viability is on file for O=C(CN1C(=O)CC(c2ccco2)Sc2ccccc21)Nc1ccccc1F (stereo unspecified) ?
84.3

###

# Method Description: reversal of MRP1-mediated doxorubicin resistance, pilot screen, H69AR cells, doxorubicin co-treatment (AID 601)
# Experimental Context: H69AR cells + 2 uM doxorubicin, CellTiter-Glo, 72 h; at 10 µM; stronger effect = higher value
Activity calls are given as the source filed them.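 How the source made its calls: active means viability loss from added drug above about 55%, and viability with drug at most 40%, in both replicates (limit read from the data, passing the limit was not always enough); inconclusive means both conditions met in only one replicate; inactive means neither replicate meets both conditions.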
I'd appreciate it if you could supply differential viability (reversal) values for the items below.

differential viability (reversal) lookup needed for COc1ccc(OC)c(S(=O)(=O)Nc2ccc(C(N)=O)cc2)c1 , thanks.
5.67% (inactive)

Item under review: C1CCc2nnc(-c3nnc4n3CCCCC4)n2CC1 . Reported differential viability (reversal)?
6.52% (inactive)

# get_value(readout='differential viability (reversal)', item= CSC1=NCCN1C(=O)c1ccc(S(=O)(=O)N2CCCC2)cc1 )
-1.11% (inactive)

Field request: differential viability (reversal) | item: Cc1c(NC2=NC3(CCCCC3)Cc3ccccc32)c(=O)n(-c2ccccc2)n1C
5.08% (inactive)

Can you share its differential viability (reversal)? I mean this molecule: COc1ccc(S(=O)(=O)n2ccnc2)c2cccnc12
-0.965% (inactive)

Requested field: differential viability (reversal). Item: CS(=O)(=O)N(Cc1nc2sc3c(c2c(=O)[nH]1)CCCC3)C1CCCCC1
1.24% (inactive)

# input molecule: COc1cc(C2C(C#N)=C(N)OC3=C2C(=O)CC(C)(C)C3)ccc1OC(=O)N1CCOCC1 (stereo not given) ; wanted: its differential viability (reversal)
4.58% (inactive)

Would you mind telling me what differential viability (reversal) value was observed for O=C(Oc1ccc(Cl)cc1N1C(=O)CCC1=O)c1ccco1 ?
3.6% (inactive)

May I ask what differential viability (reversal) has been recorded for COC(=O)C1(C)NC(c2ccco2)C2C(=O)N(c3ccc(C)cc3)C(=O)C21 (stereo not given) ?
-3% (inactive)

Could you share which differential viability (reversal) value was measured for COc1ccc(-c2[nH]nc3c2C(c2ccccc2OC(=O)N2CCOCC2)C(C#N)=C(N)O3)cc1 (stereo not given) ?
1.89% (inactive)

###

Give viability for every item shown.
# Method Description: reversal of MRP1-mediated doxorubicin resistance, pilot screen, H69AR cells, doxorubicin co-treatment (AID 601)
# Experimental Context: H69AR cells, CellTiter-Glo, 72 h; compound alone cytotoxicity; at 10 µM
Give the quantity in %, number only.

Any idea what viability was measured for O=C(Nc1cccnc1N1CCOCC1)c1ccco1 ?
92

Would you kindly share the measured viability for CCCCCCn1c(SCCCC)nc2c1c(=O)[nH]c(=O)n2C ?
88.2

I am curious: what viability value has been reported for COc1ccccc1NC(=O)CSc1nnnn1-c1ccc2c(c1)OCO2 ?
90.9

viability for CSCCC(NS(=O)(=O)c1ccc2c(c1)oc(=O)n2C)C(=O)NC1CCCCC1 (stereo unspecified) ?
103

Recorded viability of CN(c1ccccc1)S(=O)(=O)c1ccc(C(=O)OCC(=O)NCc2ccco2)cc1 , please.
74.4

Could you share which viability value was measured for COc1cc(C)c(N)cc1C(C)C ?
94.1

###

# Method Description: reversal of MRP1-mediated doxorubicin resistance, pilot screen, H69AR cells, doxorubicin co-treatment (AID 601)
# Experimental Context: H69AR cells, CellTiter-Glo, 72 h; compound alone cytotoxicity; at 10 µM
Measured Endpoint: viability (%)
Report the value in % with no unit label.

Which viability is listed for COc1cc(CN2CCN(C(=O)CC(C)C)CC2)cc(OC)c1O ?
102

viability for Cc1ccc(C(C(=O)NC(C)(C)C)N(C(=O)c2csnn2)c2cccc(F)c2)o1 (stereo unspecified) ?
92.8

Fill in the blank: the reported viability of CC1=C(n2nnc3ccccc32)C(c2ccccc2)C(C#N)=C(N)O1 (stereo unspecified) is ____.
83.8

What value of measured viability is listed for COc1ccc2c(c1)C(C)=CC(C)(C)N2C(=O)C(C)N1C(=O)c2ccccc2C1=O (stereo unspecified) ?
85.7

Quick one: viability for COc1cccc(C(=O)Nc2ncc3c(n2)CC(C)CC3=O)c1 (stereo unspecified) ?
109

Which viability value belongs to O=C(Cn1ncc2ccccc21)N1CCN(c2cccc(C(F)(F)F)c2)CC1 ?
87.1

Given Cc1noc(C)c1CSc1nnc2n(-c3ccccc3)c(=O)c3ccccc3n12 , state its recorded viability.
81.7

Endpoint output: viability of N=c1c(C(=O)NCc2ccc3c(c2)OCO3)cc2c(=O)n3ccccc3nc2n1Cc1cccnc1 . Value?
78.8

// query viability value for entry CCOCCCNC(=O)C1CCN(S(=O)(=O)N(CC(C)C)CC(C)C)CC1
111

Which measured viability value corresponds to Cc1ccccc1NC(=O)N1C2CCCC1CC(NC(=O)C1CC1)C2 (stereo unspecified) ?
104

So what's the measured viability for this one? Cc1ccc(NCC(O)C(O)C(O)CO)cc1C (stereo unspecified)
94.3
